experimentSummary: E. coli acrAB mutant growth effects, primary screen, E. coli filamentation inducers, strain DRC39, OD650, 48 h (AID 1179);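 note: screen aims at cell division blockers that make cells filament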
assayContext: E. coli DRC39 delta-acrAB growth, higher = more signal, called active from +8 up or from −8 down
metric: z-score
Would you mind answering with just the numeric figure?

Recorded z-score of CCOC(=O)[C@H](Cc1ccccc1)NC(=O)CCC1CC(OC(=O)NCc2cccc3ccccc23)CC2(CCCC(COC(=O)NCC3CCCCC3)O2)O1 (some centres not stated) , please.
0.481

Can you look up the measured z-score of C=CC[C@@H]1C=C[C@H](ON=C(C)CCN2CCCc3nc(C)c(C)cc32)[C@@H](CO)O1 for me?
-0.0088

Any idea what its z-score is? The compound is CO[C@H]1COC(=O)[C@H](CCSC)NC(=O)CC=C[C@@H](C)[C@H](OC)COC(=O)[C@@H](OCc2ccccc2)C=C[C@@H]1C
0.238

So what's the measured z-score for this one? CCOC(=O)CCN1C(=O)[C@H]2[C@H]3[C@H](O)[C@H](O)CC(=NOCC(C)C)[C@@H]3CC[C@H]2C1=O
-0.321

Any idea what z-score was measured for CO[C@H]1COC(=O)CC=C[C@@H](C)COC(=O)[C@H]2CCCN2C(=O)CC=C[C@H]1C ?
0.745

Consider the compound CC(CCC(=O)OC[C@H]1O[C@H](C#Cc2ccccc2)C=C[C@@H]1Oc1ccc(C)cc1)=NOC(C)CN1CCCc2nc(C)c(C)cc21 (some centres not stated) and give its measured z-score.
-0.41

Bench note: what z-score did O=C1[C@H]2CCn3c(=O)n(-c4ccccc4)c(=O)n3[C@H]2[C@H](O)[C@@H]2O[C@H]12 show?
-0.489

----------
experimentSummary: COS7 lysate on small-molecule microarray, probe aHis, 635 nm (AID 1123);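 note: z-score combines 667nm fluorescence intensity with signal-to-noise per printed compound spot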
assayContext: COS7 cell lysate, fluorescence, higher = more signal
metric: composite z-score
Please reply with the number alone, leaving off any unit.

For the molecule CCOC(=O)[C@H](CC(C)C)NC(=O)CCC1CC(OC(=O)NCCc2ccc(F)cc2)CC2(CCCC(COC(=O)NCCOC)O2)O1 (some centres undefined) , what composite z-score is on record?
0.5

Field request: composite z-score | item: COC(=O)[C@@H]1CC[C@H](C)[C@@H](c2ccc(Br)cc2)N1C[C@@H](O)CN=[N+]=[N-]
0.23

Fill in: composite z-score of CCOC(=O)[C@H](Cc1ccccc1)NC(=O)CCC1CC(OC(=O)NCc2cccc3ccccc23)CC2(CCCC(COC(=O)NCCc3ccc(Cl)cc3)O2)O1 (some centres undefined) is ___
0.37

Given the molecule COC(=O)CC=C[C@@H](C)[C@@H](C=NOC[C@@H](C)[C@H](OCc1ccccc1)C(C)C)NS(=O)(=O)c1ccc(C)cc1 , what is its reported composite z-score?
-0.342

----------
subjectOfTest: Torsin-1A (Homo sapiens)
experimentSummary: torsin A binders from cell lysate, primary screen, small-molecule microarray, wild-type, 635/667 nm (AID 1149)
assayContext: COS7 hTOR1A-WT lysate, 635 nm fluorescence, higher = more signal
Give measured composite z-score for each item. Keep answers brief.

Consider the molecule COC(=O)[C@H](CCSC)NC(=O)CC=C[C@@H](C)CO and give its measured composite z-score.
3.29

May I ask what composite z-score has been recorded for CC(C)=CCCC(C)=CCON=C1C[C@@H](O)[C@@H](O)[C@@H]2[C@@H]3C(=O)N(C4CCCCC4)C(=O)[C@@H]3CC[C@H]12 ?
0.46

Which composite z-score value belongs to CCOC(=O)[C@H](CC(C)C)NC(=O)CCC1CC(OC(=O)NCc2ccc3c(c2)OCO3)CC2(CCCC(COC(=O)NCCOc3ccccc3)O2)O1 (stereo partly specified) ?
0.314

What does the data say about its composite z-score? Entry: CC(C)=NO[C@@H](C)c1cn([C@H](CO)Cc2ccccc2)nn1
0.818

For the molecule shown here, COc1ccc(O[C@H]2C=C[C@@H](c3ccccc3)O[C@@H]2CON=C2c3cc(OC)ccc3O[C@H](c3cccc(OC)c3)[C@H]2O)cc1 , give the reported composite z-score.
0.0513

Reported composite z-score for CCN(CC)CC(O)CN1CCCCc2nc(C)c(C)cc21 (stereo unspecified) : what is it?
0.57

Quick one: composite z-score for O=C1C2=CC[C@H]3C(=O)N(c4ccc(F)cc4F)C(=O)[C@H]3[C@H]2[C@H](O)[C@@H]2O[C@H]12 ?
0.528

Please give the measured composite z-score for this molecule: O=C1[C@H]2[C@H]3[C@H](O)[C@H](O)CC(=NOC[C@@H](O)COCc4ccco4)[C@@H]3CC[C@H]2C(=O)N1C1CCCCC1
3.38

What does the data say about its composite z-score? Entry: CON=C[C@@H](OC)[C@H](C)C=CCC(=O)OC
0.752

Given CSCC[C@@H]1NC(=O)CC=C[C@@H](C)COC(=O)[C@H](C)COC1=O , state its recorded composite z-score.
3.64

Name the recorded composite z-score for CO[C@@H](C1CCCCC1)[C@@H](C)[C@H](OCc1cccc(Br)c1)[C@@H](C)CO .
-0.0604

Record request: composite z-score value, item CO[C@@H]1COC(=O)[C@H](CCSC)NC(=O)CC=C[C@@H](C)COC(=O)[C@@H]2CCCN2C(=O)CC=C[C@H]1C
1.24

Entry COc1ccc2c(c1)O[C@@H](c1cccc(C(F)(F)F)c1)[C@H](O)C2=O has what composite z-score?
-0.0248

Need composite z-score, item CC(CCN1CCCCc2nc(C)c(C)cc21)=NO[C@@H](C)c1cc(-c2c(C)cc(C)cc2C)no1
-1.18

What composite z-score value was documented for this molecule, O=C1[C@H]2[C@H]3[C@H](O)[C@H](O)CC(=NO[C@@H]4O[C@H](CO)[C@@H](O)[C@H](O)[C@H]4O)[C@@H]3CC[C@H]2C(=O)N1C1CCCCC1 ?
0.603

Please look up its composite z-score: O=C(NN=C1C[C@@H](O)[C@@H](O)[C@@H]2[C@@H]3C(=O)N(c4ccc(F)cc4F)C(=O)[C@@H]3CC[C@H]12)OCc1ccccc1
0.671

Consider the molecule COC(=O)CC=C[C@@H](C)[C@@H](C=NOC(C)CN1CCCCc2nc(C)c(C)cc21)NS(=O)(=O)c1ccc(C)cc1 (stereo partly specified) and give its measured composite z-score.
1.05

Form field: reported composite z-score of CC(CCC(=O)OC[C@H]1O[C@H](C#Cc2ccccc2)C=C[C@@H]1Oc1ccc(C)cc1)=NOC[C@@H](C)[C@H](OCc1ccccc1)C(C)C
-0.705

For the molecule COC(=O)[C@@H]1CC[C@H](C)[C@@H](c2ccc(C)cc2)N1C(=O)c1ccc(C=NOC[C@@H](O)[C@H]2O[C@@H]3OC(C)(C)O[C@@H]3[C@H]2O)cc1 , what composite z-score is on record?
0.215

Which composite z-score value is on record for C[C@H]1CC[C@H]2C(=O)N[C@H](Cc3ccccc3)C(=O)N2[C@@H]1c1ccccc1 ?
0.345

Consider the molecule O=C1[C@H]2[C@H]3[C@H](O)[C@H](O)CC(=NOCc4ccccc4)[C@H]3CC[C@H]2C(=O)N1C1CCCCC1 and give its measured composite z-score.
0.161

# get_value(readout='composite z-score', item= CCOC(=O)[C@H](Cc1ccccc1)NC(=O)CCC1CC(OC(=O)NCCc2ccc(F)cc2)CC2(CCCC(COC(=O)NCCOc3ccccc3)O2)O1 (stereo partly specified) )
0.227

// composite z-score lookup, key: CC(CCC(=O)OC[C@H]1O[C@H](C#Cc2ccccc2)C=C[C@@H]1Oc1ccc(C)cc1)=NOC(C)CN1CCCc2nc(C)c(C)cc21 (stereo partly specified)
0.313

# query: composite z-score of entry COC(=O)[C@H](C)NC(=O)CCC1CC(OC(=O)NCc2cccc3ccccc23)CC2(CCCC(COC(=O)NCCc3ccccc3OC)O2)O1 (stereo partly specified)
0.475

Reported composite z-score for CO[C@H]1COC(=O)[C@H](C)COC(=O)[C@@H](OCc2ccccc2)C=C[C@@H]1C : what is it?
0.489

Entry O=C1C[C@@H](O)[C@@H](O)[C@@H]2[C@@H]3C(=O)N(c4ccc(F)cc4F)C(=O)[C@@H]3CC[C@H]12 has what composite z-score?
0.403

// query composite z-score value for entry COC(OC)[C@@H](C)[C@H](OC)[C@@H](C)[C@H](OC)c1ccccc1
0.237

If you can, please state the reported composite z-score value of CC(=O)OC[C@H]1O[C@@H](ON=C(C)CCN2CCCCc3nc(C)c(C)cc32)[C@H](OC(C)=O)[C@@H](OC(C)=O)[C@@H]1OC(C)=O .
0.987

What does the record list as composite z-score for CC(CCC(=O)OC[C@H]1O[C@H](C#Cc2ccccc2)C=C[C@@H]1Oc1ccc(C)cc1)=NO[C@H](C)c1cn([C@@H]2COC[C@H]2O)nn1 ?
0.587

Please report the recorded composite z-score for CCOC(=O)CCN1C(=O)[C@H]2[C@@H]3C(=CC[C@H]2C1=O)C(=O)[C@H]1O[C@H]1[C@H]3O .
-0.47

I'd like to know its composite z-score. The molecule in question is CC(=O)OC[C@H]1O[C@H](CC=NO[C@@H](C)c2cc(-c3c(C)cc(C)cc3C)no2)C=C[C@@H]1OC(C)=O
0.213

The reported numbers originate from PubChem BioAssay.
